Value source: the METLIN SMRT retention time set (Domingo-Almenara et al. 2019)

Assay Overview: gradient 5% acetonitrile 3 min, to 50% in 2 min, to 85% in 15 min, held 3 min, 100 µL/min
Test Settings: column: Zorbax Extend-C18 2.1 x 50 mm; eluents: water / acetonitrile, 0.1% formic acid
The label is rule met for RP-LC retention time below 800 s and rule not met for RP-LC retention time equal to or exceeding 800 s.

**Q:** # TODO verify RP-LC retention time < 800 s strictly for this molecule: CN(Cc1cc(C(F)(F)F)ccc1Cl)C1CCc2nn(C)c(=O)n2CC1 (centres undefined)
**A:** rule met

**Q:** # TODO verify RP-LC retention time < 800 s strictly for this molecule: Cc1ccn2cc(-c3ccc(NC(=O)Nc4cccc(Cl)c4)cc3)nc2n1
**A:** rule met

**Q:** # TODO verify RP-LC retention time < 800 s strictly for this molecule: COc1ccc(-c2nc(NC(=O)c3ccc(-c4nc5ccccc5s4)s3)sc2C)cc1
**A:** rule not met

**Q:** # TODO verify RP-LC retention time < 800 s strictly for this molecule: COc1cc(CNC(=O)C2CCN(Cc3cn(C)c4ccccc34)CC2)cc(OC)c1
**A:** rule met

**Q:** # TODO verify RP-LC retention time < 800 s strictly for this molecule: O=C(/C=C/C(=O)N1CCc2ccccc2C1)N1CCc2ccccc2C1
**A:** rule not met

**Q:** # TODO verify RP-LC retention time < 800 s strictly for this molecule: CC1CCN(CCNS(=O)(=O)c2ccccc2-c2nc(-c3cccc(F)c3)no2)CC1
**A:** rule met

**Q:** # TODO verify RP-LC retention time < 800 s strictly for this molecule: CCc1ccc(N2C=C(C(=O)N3CCOCC3)S(=O)(=O)c3ccc(Cl)cc32)cc1
**A:** rule not met

---

Assay Overview: gradient 5% acetonitrile 3 min, to 50% in 2 min, to 85% in 15 min, held 3 min, 100 µL/min
Test Settings: column: Zorbax Extend-C18 2.1 x 50 mm; eluents: water / acetonitrile, 0.1% formic acid
Exercise: state measured RP-LC retention time for each of the molecules provided.
Only the number, expressed in s, is required.

Value of measured RP-LC retention time for the entry COc1ccc(C2Cn3nnc(-c4nc(C)no4)c3CO2)cc1 (centres undefined) : 833

Value of measured RP-LC retention time for the entry Cc1ccc(CNC(=O)C2(C)Oc3cccnc3NC2=O)cc1 (centres undefined) : 702

Value of measured RP-LC retention time for the entry CCn1cc(C(=O)Nc2ccc(F)cc2)c(S(=O)(=O)N2CCSCC2)n1 : 976

Value of measured RP-LC retention time for the entry CC1(C)C(=O)Nc2ccc(S(=O)(=O)N3CCC(c4noc(-c5ccncc5)n4)C3)cc21 (centres undefined) : 700

Value of measured RP-LC retention time for the entry CC(C)c1noc(-c2ccc(-n3cnc(C(=O)NC4CCCCC4)c3)nc2)n1 : 741

Value of measured RP-LC retention time for the entry Cc1ccc(CNC(=O)C2(C)CN(S(C)(=O)=O)CC(=O)N2Cc2ccc(N(C)C)cc2)cc1 (centres undefined) : 668

Value of measured RP-LC retention time for the entry CC(C)CC(=O)N1CCc2nc(-c3ccccc3)ncc2C1 : 868

Value of measured RP-LC retention time for the entry CC(C)CNC(=O)C1CCN(C(=O)Nc2ccc(NC(=O)Nc3ccccc3)cc2)CC1 : 812

Value of measured RP-LC retention time for the entry COc1ccc(N2C=C(C(=O)N3CCCC3)S(=O)(=O)c3ccccc32)cc1OC : 726

---

Assay Overview: gradient 5% acetonitrile 3 min, to 50% in 2 min, to 85% in 15 min, held 3 min, 100 µL/min
Test Settings: column: Zorbax Extend-C18 2.1 x 50 mm; eluents: water / acetonitrile, 0.1% formic acid
Exercise: state measured RP-LC retention time for each of the compounds provided.
Only the number, expressed in s, is required.

Value of measured RP-LC retention time for the entry Cc1ccc2nc(-c3cccc(Cl)c3)c(Nc3ccc4c(c3)OCO4)n2c1 : 746

Value of measured RP-LC retention time for the entry Cc1nn(C)c(C)c1CCN(C)C(=O)CC1=C2CCCCC2N(C(C)C)C1=O (stereo not given) : 648

Value of measured RP-LC retention time for the entry O[C@@H]1C[C@@H](c2nnc3n2CCN(Cc2ccccn2)C3)N(Cc2ccccc2)C1 : 537

Value of measured RP-LC retention time for the entry COc1ccc(NC(=O)c2cn(-c3cc(N(C)C)ncn3)cn2)c(OC)c1 : 842

Value of measured RP-LC retention time for the entry CCOc1ccc(NC(=O)N2CCC(c3nc(C(=O)N4CCOCC4)c(C)o3)CC2)cc1 : 704

---

Assay Overview: gradient 5% acetonitrile 3 min, to 50% in 2 min, to 85% in 15 min, held 3 min, 100 µL/min
Test Settings: column: Zorbax Extend-C18 2.1 x 50 mm; eluents: water / acetonitrile, 0.1% formic acid
# if value of RP-LC retention time reaches 800 s, tag 1 (yes); if it stays below, tag 0 (no)

**Q:** Please tell me: is the compound O=C(Cn1ccc2sccc2c1=O)N1CCN(c2ccccc2)CC1 at or over 800 s in terms of RP-LC retention time?
**A:** 0 (no)

**Q:** Please tell me: is the compound O=C(CSc1ncccn1)Nc1nc(-c2ccccc2)c(-c2ccccc2)o1 at or over 800 s in terms of RP-LC retention time?
**A:** 1 (yes)

**Q:** Please tell me: is the compound CCSc1nnc(-c2nn(C)c3c2CN(S(=O)(=O)c2ccc(CC)cc2)CC3)n1CC at or over 800 s in terms of RP-LC retention time?
**A:** 1 (yes)

**Q:** Please tell me: is the compound Cc1cc(OCCCS(C)(=O)=O)cc(C)c1-c1cccc(COc2ccc3c(c2)OC[C@H]3CC(=O)O)c1 at or over 800 s in terms of RP-LC retention time?
**A:** 1 (yes)

**Q:** Please tell me: is the compound O=C(Nc1ccc2c(c1)OCO2)c1c(O)c2cccnc2n(-c2ccccc2)c1=O at or over 800 s in terms of RP-LC retention time?
**A:** 0 (no)

**Q:** Please tell me: is the compound CN1CCC(NC(=O)c2ncoc2-c2ccccc2)CC1 at or over 800 s in terms of RP-LC retention time?
**A:** 0 (no)

**Q:** Please tell me: is the compound CC(=O)N1CCN(S(=O)(=O)c2cc3c4c(c2)CCC(=O)N4CCC3)CC1 at or over 800 s in terms of RP-LC retention time?
**A:** 0 (no)

**Q:** Please tell me: is the compound Cc1nc(-c2cn(C)c3ncccc23)sc1C(=O)NCc1ccccc1F at or over 800 s in terms of RP-LC retention time?
**A:** 1 (yes)

**Q:** Please tell me: is the compound CNC(=O)Cc1csc(-c2ccc(F)cc2)n1 at or over 800 s in terms of RP-LC retention time?
**A:** 0 (no)

**Q:** Please tell me: is the compound COCCN1C(=O)CCc2cc(NS(=O)(=O)c3cccc4nsnc34)ccc21 at or over 800 s in terms of RP-LC retention time?
**A:** 0 (no)

**Q:** Please tell me: is the compound CCN(CC)S(=O)(=O)c1ccc2c(c1)CC(C(=O)NC1CCCC1)N2C(C)=O (stereo not drawn) at or over 800 s in terms of RP-LC retention time?
**A:** 1 (yes)

**Q:** Please tell me: is the compound Cc1cc(-c2nnc(-c3ccc(F)cc3)o2)c(C)n1CC(=O)NC(C)c1ccccc1 (stereo not drawn) at or over 800 s in terms of RP-LC retention time?
**A:** 1 (yes)

**Q:** Please tell me: is the compound CC(C)NC(=O)c1ccc2nc(-c3ccccc3)cn2c1 at or over 800 s in terms of RP-LC retention time?
**A:** 0 (no)

**Q:** Please tell me: is the compound CCOC(=O)C1CCN(C(=O)C2CN(C(=O)c3ccc(F)c(F)c3)C2)CC1 at or over 800 s in terms of RP-LC retention time?
**A:** 0 (no)

**Q:** Please tell me: is the compound CCOCCOC1CCN(C(=O)c2sccc2C)CC1 at or over 800 s in terms of RP-LC retention time?
**A:** 0 (no)

**Q:** Please tell me: is the compound Cc1ccc(CNC(=O)c2cc(NC(=O)C(C)C)cc3nc(C)ccc23)cc1 at or over 800 s in terms of RP-LC retention time?
**A:** 0 (no)

**Q:** Please tell me: is the compound C=CCn1nnc(NCc2ccc(-c3ccc(Br)cc3Br)o2)n1 at or over 800 s in terms of RP-LC retention time?
**A:** 1 (yes)

**Q:** Please tell me: is the compound Cc1nc(C)c(C(=O)N2CC(Oc3cccc(-c4nc(-c5ccccc5)no4)c3)C2)s1 at or over 800 s in terms of RP-LC retention time?
**A:** 1 (yes)

**Q:** Please tell me: is the compound CCc1nc(-c2csc(S(=O)(=O)N3CCCC(C(=O)Nc4ccc(C#N)cc4)C3)c2)no1 (stereo not drawn) at or over 800 s in terms of RP-LC retention time?
**A:** 1 (yes)

**Q:** Please tell me: is the compound COc1cc(NC(=O)c2cnn(-c3ccc(Br)cc3)c2)cc(OC)c1OC at or over 800 s in terms of RP-LC retention time?
**A:** 1 (yes)

**Q:** Please tell me: is the compound O=C(NCCc1csc(-c2ccccc2)n1)C1CCN(C(=O)c2ccc(F)c(Cl)c2)CC1 at or over 800 s in terms of RP-LC retention time?
**A:** 1 (yes)

**Q:** Please tell me: is the compound Cc1cccc(-c2noc(C3CCCN3C(=O)NCc3ccc(F)cc3)n2)c1 (stereo not drawn) at or over 800 s in terms of RP-LC retention time?
**A:** 1 (yes)

**Q:** Please tell me: is the compound COc1cccc(S(=O)(=O)N2CCc3nc(-c4ccc(Cl)cc4)ncc3C2)c1 at or over 800 s in terms of RP-LC retention time?
**A:** 1 (yes)

**Q:** Please tell me: is the compound O=C(Cn1nc2c3cc(-c4ccccc4)nn3ccn2c1=O)Nc1ccc(Br)cc1F at or over 800 s in terms of RP-LC retention time?
**A:** 1 (yes)

**Q:** Please tell me: is the compound O=C(N1CCC(NS(=O)(=O)Cc2ccccc2)CC1)N1C[C@H]2C[C@H](C1)[C@H]1CCCC(=O)N1C2 at or over 800 s in terms of RP-LC retention time?
**A:** 0 (no)

**Q:** Please tell me: is the compound COc1ccc(-c2nc(N(Cc3ccco3)C3CCCCC3)c3ccccc3n2)cc1 at or over 800 s in terms of RP-LC retention time?
**A:** 1 (yes)

**Q:** Please tell me: is the compound CCn1c(=O)sc2cc(S(=O)(=O)N3CCC(C(=O)N4CCC(C)CC4)CC3)ccc21 at or over 800 s in terms of RP-LC retention time?
**A:** 1 (yes)

**Q:** Please tell me: is the compound COc1ccc(Cl)cc1NC(=O)N1CCCC1c1nc(-c2ccccc2OC)no1 (stereo not drawn) at or over 800 s in terms of RP-LC retention time?
**A:** 1 (yes)

**Q:** Please tell me: is the compound Cc1ccc(C(=O)NC(C)C(=O)Nc2nc3ccccc3[nH]2)cc1 (stereo not drawn) at or over 800 s in terms of RP-LC retention time?
**A:** 0 (no)

**Q:** Please tell me: is the compound Cc1nnc(-c2ccncc2)o1 at or over 800 s in terms of RP-LC retention time?
**A:** 0 (no)

**Q:** Please tell me: is the compound O=C(N1CCC(Cc2nc(-c3ccccc3)n[nH]2)C1)C1(c2ccccc2)CC1 (stereo not drawn) at or over 800 s in terms of RP-LC retention time?
**A:** 0 (no)

**Q:** Please tell me: is the compound O=C(CCc1c(-c2ccc(F)cc2)nc2ccccn12)Nc1cccc(Cl)c1 at or over 800 s in terms of RP-LC retention time?
**A:** 0 (no)

**Q:** Please tell me: is the compound COc1ccc(NC(=O)c2cnc3c(c2)c(=O)n(C)c(=O)n3-c2ccccc2)cc1Cl at or over 800 s in terms of RP-LC retention time?
**A:** 1 (yes)

**Q:** Please tell me: is the compound CCn1cc(-c2nc(CC(=O)Nc3ccc4c(c3)OCCO4)cs2)c2cccnc21 at or over 800 s in terms of RP-LC retention time?
**A:** 1 (yes)

**Q:** Please tell me: is the compound CS(=O)(=O)N(C1CCOCC1)C1CN(C(=O)Nc2ccccc2)C1 at or over 800 s in terms of RP-LC retention time?
**A:** 0 (no)
